PROCEDURE_SUMMARY: physchem
CONDITION: dry
VALUE_TYPE: remaining at 3 h
Write down the value, and be sure its unit follows.

remaining at 3 h reading for CC(S)C(=O)NCC(=O)O (centres unmarked) [compound (II), 2-mercaptopropionylglycine, reference compound] : 101%

remaining at 3 h reading for CC(SC(=O)c1cccs1)C(=O)NCC(=O)O (centres unmarked) [compound (I), 2-(2-thenoylthio)-propionylglycine] : 99.8%

---

PROCEDURE_SUMMARY: in vivo
CONDITION: mouse, po, 2000 mg/kg
VALUE_TYPE: mortality
Write down the value, and be sure its unit follows.

mortality reading for CC(S)C(=O)NCC(=O)O (stereo not shown) [compound (II), 2-mercaptopropionylglycine, reference compound] : 10%

---

PROCEDURE_SUMMARY: in vivo
CONDITION: rat, in vivo, im
VALUE_TYPE: LD50 at 168 h (mg/kg)
Please state the figure in mg/kg; there is no need to write the unit.

LD50 at 168 h reading for CC(S)C(=O)NCC(=O)O (stereo not shown) [compound (II), 2-mercaptopropionylglycine, reference compound] : 1630

---

PROCEDURE_SUMMARY: physchem
CONDITION: dry
VALUE_TYPE: remaining at 1.5 h (%)
Please state the figure in %; there is no need to write the unit.

remaining at 1.5 h reading for CC(SC(=O)c1cccs1)C(=O)NCC(=O)O (centres unmarked) : 99.8

remaining at 1.5 h reading for CC(S)C(=O)NCC(=O)O (centres unmarked) [compound (II), 2-mercaptopropionylglycine, reference compound] : 101

---

PROCEDURE_SUMMARY: in vivo
CONDITION: rat, in vivo, po, 1500 mg/kg
VALUE_TYPE: mortality at 168 h (%)
Please state the figure in %; there is no need to write the unit.

mortality at 168 h reading for CC(S)C(=O)NCC(=O)O (stereo not shown) [compound (II), 2-mercaptopropionylglycine, reference compound] : 0

---

PROCEDURE_SUMMARY: in vivo
CONDITION: mouse, po, 2500 mg/kg
VALUE_TYPE: mortality (%)
Please state the figure in %; there is no need to write the unit.

mortality reading for CC(S)C(=O)NCC(=O)O (stereo not shown) [compound (II), 2-mercaptopropionylglycine, reference compound] : 20

---

PROCEDURE_SUMMARY: in vivo
CONDITION: mouse, iv, 750 mg/kg
VALUE_TYPE: mortality (%)
Please state the figure in %; there is no need to write the unit.

mortality reading for CC(S)C(=O)NCC(=O)O (stereo not shown) [compound (II), 2-mercaptopropionylglycine, reference compound] : 0

---

PROCEDURE_SUMMARY: in vivo
CONDITION: rat, in vivo, im, 2000 mg/kg
VALUE_TYPE: mortality at 168 h (%)
Please state the figure in %; there is no need to write the unit.

mortality at 168 h reading for CC(S)C(=O)NCC(=O)O (stereo not shown) [compound (II), 2-mercaptopropionylglycine, reference compound] : 100

---

PROCEDURE_SUMMARY: in vivo
CONDITION: rat, in vivo, im, 1750 mg/kg
VALUE_TYPE: mortality at 168 h (%)
Please state the figure in %; there is no need to write the unit.

mortality at 168 h reading for CC(S)C(=O)NCC(=O)O (stereo not shown) [compound (II), 2-mercaptopropionylglycine, reference compound] : 60
